Reference source: paper PMC6344896

# tested-system: HuR F287A/F289A (human, UniProt Q15717 1-326, F287A;F289A)
# Sequence (Q15717 whole entry F287A/F289A): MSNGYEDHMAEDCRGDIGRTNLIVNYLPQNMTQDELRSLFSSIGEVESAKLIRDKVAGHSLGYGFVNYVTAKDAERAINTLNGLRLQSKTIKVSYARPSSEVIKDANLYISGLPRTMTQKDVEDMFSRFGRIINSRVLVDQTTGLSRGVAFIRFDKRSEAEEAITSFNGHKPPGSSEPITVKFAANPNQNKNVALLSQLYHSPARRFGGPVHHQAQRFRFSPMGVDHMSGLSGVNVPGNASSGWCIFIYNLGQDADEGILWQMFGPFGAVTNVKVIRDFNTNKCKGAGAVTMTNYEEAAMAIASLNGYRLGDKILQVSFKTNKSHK
# protocol-summary: ITC; n=0.7; ITC: 50 mM sodium phosphate pH 7.0, 200 mM NaCl, 2 mM beta-mercaptoethanol, 298 K; NMR: 20 mM sodium phosphate pH 7.0, 200 mM NaCl, 5 mM DTT, 1 mM EDTA, 298 K
# test-conditions: protein: recombinant; tags: untagged (tag cleaved)
assay-endpoint: Kd
Kindly format the answer as number then unit.

Exercise: Using the record for AUUUUUAUUUUAUUUUU (ssRNA) [AU17] , report its Kd.
Key: 194 nM
